Test system: glucose 6-phosphate dehydrogenase
protocolSummary: Stabilization of glucose 6-phosphate dehydrogenase in a reagent for measuring the activity of creatine kinase (residual activity after storage)
Assay type: biochemical
conditionParameters: 10 mM additive in reagent solution 1 (pH 6.6), stored at 10° C. for 3 months; activity immediately after preparation = 100%
readoutName: Residual activity after 3 months (%)
// note: answer is a bare numeric in %

[[record]]
compound = "NNC(=O)c1cccnc1 [II-4, nicotinic acid hydrazide]"
unitofmeasure = "%"
measurednumber = 70.3

[[record]]
compound = "Cc1cccc(N(O)C(=O)C=Cc2ccccc2)c1C [Compound I-11, N-cinnamoyl-N-2,3-xylylhydroxylamine]"
unitofmeasure = "%"
measurednumber = 79.6

[[record]]
compound = "NNC(=O)C(=O)NN [II-3, oxalyldihydrazide]"
unitofmeasure = "%"
measurednumber = 88.5

[[record]]
compound = "NNC(=O)Nc1ccccc1 [II-14, 4-phenylsemicarbazide]"
unitofmeasure = "%"
measurednumber = 99.9


API: the following record is the query input.
Req: Give me measured Residual activity after 3 months (%), please, for this compound: O=C(c1ccccc1)N(O)c1ccccc1 [Compound I-6, N-benzoyl-N-phenylhydroxylamine]
Resp: 80.5
